Sourced from paper PMC9508196

Collected MIC values appear next to each entry.
test system: Staphylococcus aureus ATCC 25,923; assay type: cell-based; details: S. aureus ATCC 25,923; broth microdilution, MHB, 24 h, 37 °C, triplicate
No end group written: not given here.

RLFRRVKKVAGKIAKR-NH2 [AP16] = 125 µg/mL
RLFRRVKKVAGKIAKRIW-NH2 [AP18] = 7.81 µg/mL
RLFRRVKKVAGKIA-NH2 [AP14] = > 250 µg/mL

// assay Staphylococcus aureus ATCC 25,923, entry RLFRRVKKVAGKI-NH2 [AP13] , MIC value = > 250 µg/mL

Form field, MIC with Staphylococcus aureus ATCC 25,923, item RLFRRVKKVAGKIAK-NH2 [AP15] : 250 µg/mL

Summary: RLFRRVKKVAGK-NH2 [AP12] , Staphylococcus aureus ATCC 25,923, MIC = > 250 µg/mL

The reported MIC value, Staphylococcus aureus ATCC 25,923, for RLFRRVKKVAGKIAKRI-NH2 [AP17] reads 62.5 µg/mL

Sample RLFRRVKKVAGKIAKRIWK-NH2 [AP19] , system: Staphylococcus aureus ATCC 25,923. Its MIC is 7.81 µg/mL

Summary line: RLFRRVKKVAGKIAKRIWKILRR-NH2 [A3P7] , Staphylococcus aureus ATCC 25,923, reported MIC = 7.81 µg/mL

* * *

system: Bacillus cereus ATCC 11,778; assay type: cell-based; conditions: B. cereus ATCC 11,778; broth microdilution, MHB, 24 h, 37 °C, triplicate
No end group written: not given here.
endpointName: MIC (µg/mL)
The answer is to be given in µg/mL; state only the numeric part.

// known answers, use as guide
RLFRRVKKVAGKIAKRI-NH2 [AP17] = 62.5
RLFRRVKKVAGKIAKRIWKILRR-NH2 [A3P7] = 7.81

Looking up RLFRRVKKVAGKIAKR-NH2 [AP16] , I found its MIC recorded as 250

Measured MIC, RLFRRVKKVAGKIAKRIWK-NH2 [AP19] : 7.81

For reference, reported MIC for RLFRRVKKVAGKIAKRIW-NH2 [AP18] stands at 7.81

* * *

We begin with a simple list: items and their reported MIC.
System: Bacillus cereus ATCC 11,778
Assay type: cell-based
Settings: B. cereus ATCC 11,778; broth microdilution, MHB, 24 h, 37 °C, triplicate
Source text: Ten strains of both Gram-positive and -negative bacteria, including Staphylococcus aureus ATCC 25,923, S. epidermidis ATCC 12,228, Bacillus cereus ATCC 11,778, Listeria monocytogenes 10403S, Salmonella typhimurium ATCC 13,311, Pseudomonas aeruginosa ATCC 27,853, Shigella sonnei ATCC 11,060, A. baumannii ATCC 19,606, Escherichia coli ATCC 25,922 and E. coli O157:H7, were used in this study. […]
No end group written: not given here.

Completed entries (count: 3):
RLFRRVKKVAGKIA-NH2 [AP14] = > 250 µg/mL
RLFRRVKKVAGK-NH2 [AP12] = > 250 µg/mL
RLFRRVKKVAGKI-NH2 [AP13] = > 250 µg/mL

From here, focus on the item given below.
According to the records, this substance RLFRRVKKVAGKIAK-NH2 [AP15] displays MIC of > 250 µg/mL
